Where do the numbers come from? From PubChem BioAssay AID1619.

Target Or System: Leucine aminopeptidase (Plasmodium falciparum (isolate 3D7))
Method Summary: P. falciparum M17LAP inhibitors, primary screen, biochemical, fluorogenic H-Leu-NHMec substrate, 1536-well (AID 1619);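 also: plate controls were full reaction with DMSO carrier for no effect and no enzyme background for full effect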
Condition Set: recombinant M17LAP, H-Leu-NHMec fluorogenic kinetic assay; at 30 µM; stronger effect = higher value
Hit rate of the full screen: of about 220,000 compounds, about 830 (0.38%) were called active. The list is a sample of the results. Measured potencies and affinities stand elsewhere.
Measured Quantity: inhibition (%)
Respond with the bare value in %.

Example results:
# Compound, Unit Descriptor, inhibition
rows = [
    ("O=C(CCSc1ccccc1)Nc1ccc(OCc2ccccc2)cc1", "%", 3.34),
    ("CC1CN(Cc2nnc(-c3ccccc3)o2)CC(C)O1 (stereo unspecified)", "%", 3.22),
    ("COc1ccc(NC(=O)CN2CCC(C)CC2)cc1", "%", 32.1),
    ("CC(=O)Nc1ccc(S(=O)(=O)Oc2cccc(N3C(=O)C4CC=CCC4C3=O)c2)cc1 (stereo unspecified)", "%", 15.9),
    ("O=C(Nc1ccc(S(=O)(=O)NCc2ccco2)cc1)C1CCCCC1", "%", 2.33),
    ("O=C(CN1C(=O)C2C3c4ccccc4C(c4ccccc43)C2C1=O)N1CCOCC1 (stereo unspecified)", "%", 4.26),
    ("CCOC(=O)CSc1[nH]c(=O)cc(C)c1C#N", "%", 17),
    ("CCc1nn(-c2ccccc2)c(N)c1-c1ccc(OC)c(OC)c1", "%", 1.87),
]

Return the recorded inhibition value; entry: CCOC(=O)c1cnc2c(C(F)(F)F)cccc2c1N1CCOCC1
6.02

Consider the compound O=C1C2CC=CCC2C(=O)N1c1cccc(OS(=O)(=O)c2ccc3ccccc3c2)c1 (stereo unspecified) . State its measured inhibition.
6.42

Please list inhibition recorded for the compound CCN(C(=O)CCc1nc(-c2ccc(OC)cc2)no1)c1cc(OC)ccc1OC
-5.65
